Numbers sourced from patent US11566007B2.

# assayed-target: NRAS Q61R (Homo sapiens (Human), UniProt P01111+P62937, Q61R)
# Sequence (P01111 whole entry Q61R): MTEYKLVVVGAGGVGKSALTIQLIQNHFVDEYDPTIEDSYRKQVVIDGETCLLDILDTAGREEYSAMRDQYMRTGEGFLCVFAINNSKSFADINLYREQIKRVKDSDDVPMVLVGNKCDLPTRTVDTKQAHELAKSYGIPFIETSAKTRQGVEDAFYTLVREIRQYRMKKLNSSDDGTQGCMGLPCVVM
# Sequence (P62937 whole entry): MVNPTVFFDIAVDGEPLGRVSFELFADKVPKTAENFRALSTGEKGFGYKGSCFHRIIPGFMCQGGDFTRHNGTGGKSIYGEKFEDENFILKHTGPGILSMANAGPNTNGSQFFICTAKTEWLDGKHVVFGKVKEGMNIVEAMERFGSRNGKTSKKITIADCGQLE
# assay-procedure: Ras-Raf (BRAF RBD) disruption / FRET / MOA assay, NRAS Q61R
# Type: biochemical
# assay-setup: NRAS Q61R; Ras-Raf disruption/FRET/MOA assay; read-out: IC50* NRAS Q61R FRET data

| molecule | IC50 |
| --- | --- |
| C=CC(=O)N1CC[C@H](C(=O)N(C)C(C(=O)N[C@H]2C[C@H]3CN(CCO3)c3ccc4c(c3)c(c(-c3cccnc3[C@H](C)OC)n4CC)CC(C)(C)COC(=O)[C@@H]3CCCN(N3)C2=O)C(C)C)C1 (mixture of isomers) | > 10000 nM |
| C=CC(=O)N1CCO[C@@H]2CN(C(=O)N(C)[C@H](C(=O)N[C@H]3Cc4nc(cs4)-c4ccc5c(c4)c(c(-c4cccnc4[C@H](C)OC)n5CC)CC(C)(C)COC(=O)[C@@H]4CCCN(N4)C3=O)C(C)C)C[C@@H]21 (atropisomer, axis not shown) | 100 to 1000 nM |
| C=CC(=O)N(C)[C@H]1CN(C(=O)N(C)[C@H](C(=O)N[C@H]2Cc3nc(cs3)-c3ccc4c(c3)c(c(-c3cccnc3[C@H](C)OC)n4CC)CC(C)(C)COC(=O)[C@@H]3CCCN(N3)C2=O)C(C)C)C[C@@H]1F (atropisomer, axis not shown) | 100 to 1000 nM |
| C=CC(=O)N(C)C[C@@H]1CCN1C(=O)N(C)[C@H](C(=O)N[C@H]1Cc2nc(cs2)-c2ccc3c(c2)c(c(-c2cccnc2[C@H](C)OC)n3CC)CC(C)(C)COC(=O)[C@@H]2CCCN(N2)C1=O)C(C)C (atropisomer, axis not shown) | 1000 to 10000 nM |
| CO[C@@H](C)c1ncccc1-c1c2c3cc(ccc3n1CC(F)(F)F)-c1cnc(o1)C[C@H](NC(=O)[C@H](C(C)C)N(C)C(=O)[C@H]1CCN(C(=O)C#CC(C)(C)N(C)C)C1)C(=O)N1CCC[C@H](N1)C(=O)OCC(C)(C)C2 (atropisomer, axis not shown) | > 10000 nM |
| C=CC(=O)N1CCC2(C1)CN(C(=O)N(C)[C@H](C(=O)N[C@H]1Cc3nc(cs3)-c3ccc4c(c3)c(c(-c3cccnc3[C@H](C)OC)n4CC(F)(F)F)CC(C)(C)COC(=O)[C@@H]3CCCN(N3)C1=O)C(C)C)C2 | 10 to 100 nM |
| C=CC(=O)N1CC[C@H](C(=O)N(C)[C@H](C(=O)N[C@H]2Cc3coc(n3)-c3ccc4c(c3)c(c(-c3cccnc3[C@H](C)OC)n4CC)CC(C)(C)COC(=O)[C@@H]3CCCN(N3)C2=O)C(C)C)C1 (atropisomer, axis not shown) | > 10000 nM |
| C=CC(=O)N1CCO[C@]2(CCN(C(=O)N(C)[C@H](C(=O)N[C@H]3Cc4nc(cs4)-c4ccc5c(c4)c(c(-c4cccnc4[C@H](C)OC)n5CC(F)(F)F)CC(C)(C)COC(=O)[C@@H]4CCCN(N4)C3=O)C(C)C)C2)C1 (atropisomer, axis not shown) | 100 to 1000 nM |
